ASSAY TARGET: human PAD4 (hPAD4) (Homo sapiens)
Sequence (Q9UM07 whole entry): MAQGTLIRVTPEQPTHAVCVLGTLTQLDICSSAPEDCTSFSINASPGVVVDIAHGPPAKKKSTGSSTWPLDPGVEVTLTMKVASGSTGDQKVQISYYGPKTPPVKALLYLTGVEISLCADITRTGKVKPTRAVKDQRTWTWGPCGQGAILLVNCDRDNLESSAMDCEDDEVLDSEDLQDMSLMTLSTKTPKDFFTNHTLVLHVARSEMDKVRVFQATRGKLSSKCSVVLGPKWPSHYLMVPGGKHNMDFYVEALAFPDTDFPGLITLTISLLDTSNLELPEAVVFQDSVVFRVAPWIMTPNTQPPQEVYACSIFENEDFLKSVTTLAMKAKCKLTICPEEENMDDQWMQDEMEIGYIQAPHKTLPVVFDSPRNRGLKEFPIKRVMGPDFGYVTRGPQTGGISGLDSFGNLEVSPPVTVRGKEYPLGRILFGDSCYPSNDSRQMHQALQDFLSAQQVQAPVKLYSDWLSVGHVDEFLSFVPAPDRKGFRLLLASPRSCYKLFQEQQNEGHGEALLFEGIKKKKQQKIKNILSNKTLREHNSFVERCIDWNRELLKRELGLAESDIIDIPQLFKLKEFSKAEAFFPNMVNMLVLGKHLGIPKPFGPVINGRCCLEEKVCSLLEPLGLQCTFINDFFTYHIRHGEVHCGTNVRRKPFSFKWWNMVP
METHOD: RFMS human PAD4 functional assay (rapid-fire mass spectrum)
CONDITION PARAMETERS: 5 nM hPAD4 enzyme, 250 μM BAEE, 50 μM Calcium; 30 min preincubation, 90 min reaction at 37° C.
RESULT TYPE: log10 of IC50 (log10 of the value in nM)

INSERT INTO measurements (compound, assay_target, recorded_measurement) VALUES
  ('COc1cc(C(=O)N2CC3CCC2[C@@H]3N)cc2nc(-c3cc4ccccc4n3CC3CC3)n(CC3CN(C(=O)c4ccccc4C(=O)O)C3)c12 (stereo partly drawn)', 'human PAD4 (hPAD4) (Homo sapiens)', 1.97),
  ('COc1cc(C(=O)N2C[C@H]3CC[C@@H]2[C@@H]3N)cc2nc(-c3cc4ccccc4n3CC3CC3)n(CC3CN(c4cncnc4C#N)C3)c12 [Example 19]', 'human PAD4 (hPAD4) (Homo sapiens)', 1.74),
  ('COc1cc(C(=O)N2C[C@H]3CC[C@@H]2[C@@H]3N)cc2nc(-c3cc4cc(Cl)ccc4n3C)n(CC3CN(c4ccnc(C#N)n4)C3)c12', 'human PAD4 (hPAD4) (Homo sapiens)', 2.01),
  ('COc1cc(C(=O)N2CC3CCC2[C@@H]3N)cc2nc(-c3cc4cccnc4n3CC3CC3)n(C3CN(S(=O)(=O)C(F)(F)F)C3)c12 (stereo partly drawn)', 'human PAD4 (hPAD4) (Homo sapiens)', 3.10),
  ('COc1cc(C(=O)N2C[C@H](N)C[C@@H](F)C2)cc2nc(-c3cc4ccccc4n3CC3CC3)n(Cc3cc(C)nn3C)c12', 'human PAD4 (hPAD4) (Homo sapiens)', 2.47),
  ('COc1cc(C(=O)N2CC3CCC2[C@@H]3N)cc2nc(-c3cc4cccnc4n3CC3CC3)n(CC3CN(C(=O)c4ccc(C#N)cc4F)C3)c12 (stereo partly drawn)', 'human PAD4 (hPAD4) (Homo sapiens)', 1.72);

Hey, just so you know, these numbers are from patent US12692254B2.
